- System: Pseudomonas
- measurement-notes: Compound was tested for antibacterial activity against Pseudomonas organism
- Assay type: functional
This listing pairs compounds with measured MIC.
measurement-name: MIC (µg/mL)

1. CC(C)CCCCC(=O)N[C@@H](CCN)C(=O)N[C@H](C(=O)N[C@@H](CCN)C(=O)N[C@H]1CCNC(=O)[C@H]([C@@H](C)O)NC(=O)[C@H](CCNC(=O)CO)NC(=O)[C@H](CCN)NC(=O)[C@H](CC(C)C)NC(=O)[C@@H](Cc2ccccc2)NC(=O)[C@H](CCN)NC1=O)[C@@H](C)O ... 1.53
2. CCCCCCC(N)C(=O)NCC[C@@H]1NC(=O)[C@H](CCN)NC(=O)[C@H](CC(C)C)NC(=O)[C@@H](Cc2ccccc2)NC(=O)[C@H](CCN)NC(=O)[C@@H](NC(=O)[C@H](CCN)NC(=O)[C@@H](NC(=O)[C@H](CCN)NC(=O)CCCCC(C)C)[C@@H](C)O)CCNC(=O)[C@H]([C@@H](C)O)NC1=O (stereo partly specified) ... 0.051
3. CC(C)CCCCC(=O)N[C@@H](CCN)C(=O)N[C@H](C(=O)N[C@@H](CCN)C(=O)N[C@H]1CCNC(=O)[C@H]([C@@H](C)O)NC(=O)[C@H](CCNC(=O)[C@@H](N)CS)NC(=O)[C@H](CCN)NC(=O)[C@H](CC(C)C)NC(=O)[C@@H](Cc2ccccc2)NC(=O)[C@H](CCN)NC1=O)[C@@H](C)O ... 2.82
4. CC(C)CCCCC(=O)N[C@@H](CCN)C(=O)N[C@H](C(=O)N[C@@H](CCN)C(=O)N[C@H]1CCNC(=O)[C@H]([C@@H](C)O)NC(=O)[C@H](CCN(C)C)NC(=O)[C@H](CCN)NC(=O)[C@H](CC(C)C)NC(=O)[C@@H](Cc2ccccc2)NC(=O)[C@H](CCN)NC1=O)[C@@H](C)O ... 0.456
5. CCN(CC)CC[C@@H]1NC(=O)[C@H](CCN)NC(=O)[C@H](CC(C)C)NC(=O)[C@@H](Cc2ccccc2)NC(=O)[C@H](CCN)NC(=O)[C@@H](NC(=O)[C@H](CCN)NC(=O)[C@@H](NC(=O)[C@H](CCN)NC(=O)CCCCC(C)C)[C@@H](C)O)CCNC(=O)[C@H]([C@@H](C)O)NC1=O ... 0.763
6. CCNCC[C@H](NC(=O)CCCCC(C)C)C(=O)N[C@H](C(=O)N[C@@H](CCN)C(=O)N[C@H]1CCNC(=O)[C@H]([C@@H](C)O)NC(=O)[C@H](CCN)NC(=O)[C@H](CCN)NC(=O)[C@H](CC(C)C)NC(=O)[C@@H](Cc2ccccc2)NC(=O)[C@H](CCN)NC1=O)[C@@H](C)O ... 0.146

====

- measurement-notes: Compound was tested for acute toxicity in mice upon intravenous administration
- Format: organism-based
- condition-details: mouse, in vivo
# maps each entry to its LD50
measurement-name: LD50 (mg/kg)

1) CC(C)CCCCC(=O)N[C@@H](CCN)C(=O)N[C@H](C(=O)N[C@@H](CCN)C(=O)N[C@H]1CCNC(=O)[C@H]([C@@H](C)O)NC(=O)[C@H](CCNC(=O)[C@@H](N)CCCN=C(N)N)NC(=O)[C@H](CCN)NC(=O)[C@H](CC(C)C)NC(=O)[C@@H](Cc2ccccc2)NC(=O)[C@H](CCN)NC1=O)[C@@H](C)O ... 15
2) CC(C)CCCCC(=O)N[C@@H](CCNC(=O)CN)C(=O)N[C@H](C(=O)N[C@@H](CCN)C(=O)N[C@H]1CCNC(=O)[C@H]([C@@H](C)O)NC(=O)[C@H](CCN)NC(=O)[C@H](CCN)NC(=O)[C@H](CC(C)C)NC(=O)[C@@H](Cc2ccccc2)NC(=O)[C@H](CCN)NC1=O)[C@@H](C)O ... 20
3) CC(C)CCCCC(=O)N[C@@H](CCN)C(=O)N[C@H](C(=O)N[C@@H](CCN)C(=O)N[C@H]1CCNC(=O)[C@H]([C@@H](C)O)NC(=O)[C@H](CCNC(=O)[C@@H](N)Cc2ccc(O)cc2)NC(=O)[C@H](CCN)NC(=O)[C@H](CC(C)C)NC(=O)[C@@H](Cc2ccccc2)NC(=O)[C@H](CCN)NC1=O)[C@@H](C)O ... 19

====

- Test system: Pseudomonas
- measurement-notes: Compound was tested for antibacterial activity against Pseudomonas organism
- Assay type: functional
Positions of bridges follow the written chain, without caps; N, C: chain ends. Non-standard residues stand in square brackets, D forms with d. Residues, ends and D or L forms follow the SMILES beside them. *: point of attachment. Heptanoyl(6-Me) = CC(C)CCCCC(=O)*; Dab = NCC[C@H](N)C(=O)O
Quick reference for log10(MIC) among some compounds
measurement-name: log10(MIC) (log10 of the value in µg/mL)

1) CSCC[C@H](N)C(=O)NCC[C@@H]1NC(=O)[C@H](CCN)NC(=O)[C@H](CC(C)C)NC(=O)[C@@H](Cc2ccccc2)NC(=O)[C@H](CCN)NC(=O)[C@@H](NC(=O)[C@H](CCN)NC(=O)[C@@H](NC(=O)[C@H](CCN)NC(=O)CCCCC(C)C)[C@@H](C)O)CCNC(=O)[C@H]([C@@H](C)O)NC1=O ... -0.38
2) CC(C)CCCCC(=O)N[C@@H](CCN)C(=O)N[C@H](C(=O)N[C@@H](CCN)C(=O)N[C@H]1CCNC(=O)[C@H]([C@@H](C)O)NC(=O)[C@H](CCNC(=O)[C@@H](N)CCCCN)NC(=O)[C@H](CCN)NC(=O)[C@H](CC(C)C)NC(=O)[C@@H](Cc2ccccc2)NC(=O)[C@H](CCN)NC1=O)[C@@H](C)O ... -1.49
3) CCNCC[C@@H]1NC(=O)[C@H](CCN)NC(=O)[C@H](CC(C)C)NC(=O)[C@@H](Cc2ccccc2)NC(=O)[C@H](CCN)NC(=O)[C@@H](NC(=O)[C@H](CCN)NC(=O)[C@@H](NC(=O)[C@H](CCN)NC(=O)CCCCC(C)C)[C@@H](C)O)CCNC(=O)[C@H]([C@@H](C)O)NC1=O ... -0.38
4) CCC(C)CCCCC(=O)NCC[C@@H]1NC(=O)[C@H](CCN)NC(=O)[C@H](CC(C)C)NC(=O)[C@@H](Cc2ccccc2)NC(=O)[C@H](CCN)NC(=O)[C@@H](NC(=O)[C@H](CCN)NC(=O)[C@@H](NC(=O)[C@H](CCN)NC(=O)CCCCC(C)C)[C@@H](C)O)CCNC(=O)[C@H]([C@@H](C)O)NC1=O (stereo not given in full) ... 0.34
5) CC(C)CCCCC(=O)N[C@@H](CCN)C(=O)N[C@H](C(=O)N[C@@H](CCN)C(=O)N[C@H]1CCNC(=O)[C@H]([C@@H](C)O)NC(=O)[C@H](CCN(CC(=O)O)CC(=O)O)NC(=O)[C@H](CCN)NC(=O)[C@H](CC(C)C)NC(=O)[C@@H](Cc2ccccc2)NC(=O)[C@H](CCN)NC1=O)[C@@H](C)O ... -0.50
6) CCN(CC)CC[C@H](NC(=O)CCCCC(C)C)C(=O)N[C@H](C(=O)N[C@@H](CCN)C(=O)N[C@H]1CCNC(=O)[C@H]([C@@H](C)O)NC(=O)[C@H](CCN)NC(=O)[C@H](CCN)NC(=O)[C@H](CC(C)C)NC(=O)[C@@H](Cc2ccccc2)NC(=O)[C@H](CCN)NC1=O)[C@@H](C)O ... -0.69
7) CC(C)CCCCC(=O)N[C@@H](CCN)C(=O)N[C@H](C(=O)N[C@@H](CCN)C(=O)N[C@H]1CCNC(=O)[C@H]([C@@H](C)O)NC(=O)[C@H](CCNC(=O)[C@@H](N)CCC/N=C(/N)N[N+](=O)[O-])NC(=O)[C@H](CCN)NC(=O)[C@H](CC(C)C)NC(=O)[C@@H](Cc2ccccc2)NC(=O)[C@H](CCN)NC1=O)[C@@H](C)O ... 0.41
8) CC(C)CCCCC(=O)N[C@@H](CCN)C(=O)N[C@H](C(=O)N[C@@H](CCN)C(=O)N[C@H]1CCNC(=O)[C@H]([C@@H](C)O)NC(=O)[C@H](CCN)NC(=O)[C@H](CCN)NC(=O)[C@H](CC(C)C)NC(=O)[C@@H](Cc2ccccc2)NC(=O)[C@H](CCN)NC1=O)[C@@H](C)O ({Heptanoyl(6-Me)}-[Dab]T[Dab][Dab][Dab][dF]L[Dab][Dab]T; lactam 4-C) ... -1.29
9) CC(C)CCCCC(=O)N[C@@H](CCNC(=O)CN)C(=O)N[C@H](C(=O)N[C@@H](CCN)C(=O)N[C@H]1CCNC(=O)[C@H]([C@@H](C)O)NC(=O)[C@H](CCN)NC(=O)[C@H](CCN)NC(=O)[C@H](CC(C)C)NC(=O)[C@@H](Cc2ccccc2)NC(=O)[C@H](CCN)NC1=O)[C@@H](C)O ... -1.48
10) CC(C)CCCCC(=O)N[C@@H](CCN)C(=O)N[C@H](C(=O)N[C@@H](CCN)C(=O)N[C@H]1CCNC(=O)[C@H]([C@@H](C)O)NC(=O)[C@H](CCNC(=O)[C@@H](N)CCCN=C(N)N)NC(=O)[C@H](CCN)NC(=O)[C@H](CC(C)C)NC(=O)[C@@H](Cc2ccccc2)NC(=O)[C@H](CCN)NC1=O)[C@@H](C)O ... -1.52

Cited source: ChEMBL document CHEMBL1130694
